TARGET OR SYSTEM: T1, JCV VP1 VLP (JC virus (JCV), Mad-1 strain, UniProt P03089 1-354)
T1 construct: also called JCV VP1 VLPs; JCV VP1 (coating with reassociation buffer)
ASSAY NOTES: direct ELISA, plate coated with antigen at 5 µg/ml in reassociation buffer (VLP); EC50 by non-linear regression (GraphPad Prism)
PROPERTY NAME: EC50 (nM)
Give the number; nM is assumed, so skip it.

BINDER	READING UNIT	EC50
NI-307.19F8 (antibody, V domains shown) VH: EVQLVESGGGLVKPGGSLRLSCAASGFTFSSYYMNWVRQAPGKGLEWVSSISSSSSYIYYADSVKGRFTISRDNAKNSLYLQMNSLTAEDTAVYYCARDPRLQLWFMFDYWGQGTLVTVSS VL: QPVLTQPPSASASLGASVTLTCTLSSGYSNYKVDWYQQRPGEGPRFVMRVGTGGIVGSKGDGIPDRFSVLGSGLNRYLTIKDIQEEDESDYHCGADHGSGSNFVYVFGTGTKVTVL	nM	6.68
NI-307.18E12 (antibody, V domains shown) VH: QVQLQQWGAGLLKPSETLSLTCAVYGDSFSGFFWAWIRQTPGTGLEWIGEIQHGGSPTYNPSFESRLTISTDASKSQVSLKMTSVTVTDTAIYYCARCIRGKYGSGSLQLWSQGTLVTVSS VL: DIQLTQSPSFLSASVGDRVTITCRASQDINYHLAWYRQKPGKAPDLLIHSAHTLHIGVSSRFSGSGSGTEFTLTIHTLQPEDFATYYCHQPKTFPPTFGGGTKVDIK	nM	19.9
NI-307.18F4A (antibody, V domains shown) VH: EVQLVESGGGLVKPGGSLRLSCAASGFTFTNYYMTWVRQAPGKGLEWVSYITGGGSTTYYADSVTGRFTISRDNAKNSLYLQMSSLRVEDTAVYYCARGRGYPDNWFDPWGQGTLVTVSS VL: SYVLTQPPSVSVSPGQTARITCSGDALPKQYVYWYQQKPGQAPVLMIYKDAERPSGIPDRFSGSSSGTTVTLTISGVQAEDEADYYCQSTDISGAAVVFGGGTKLTVL	nM	55

Then this binder:
Query :: Name the reported EC50 value associated with the binder NI-307.61D11 (antibody, V domains shown) VH: EVQLVQSGAEVKKPGASVKVSCKTSGYTFIGHYMQWVRQVPGQGFEWMGWINPNTGTTKYALKFKDRVTVTRDTSTATVYMEFHGLTSDDTAVYYCARASAYQLANYDYWGQGTLVTVSS VL: QSALTQPASVSGSPGQSITISCAGTSNDVGDDDFVSWYQHQPGKAPRLMIYEVTNRPSGVSTRFSGSKSGNTASLTISGLQAEDEGDYYCMSYTKNSALGYVFGGGTKVTVL
Result :: 17.7
